# test-target: UniProt:Q99640
# Sequence (Q99640 whole entry, the tested form may be a part): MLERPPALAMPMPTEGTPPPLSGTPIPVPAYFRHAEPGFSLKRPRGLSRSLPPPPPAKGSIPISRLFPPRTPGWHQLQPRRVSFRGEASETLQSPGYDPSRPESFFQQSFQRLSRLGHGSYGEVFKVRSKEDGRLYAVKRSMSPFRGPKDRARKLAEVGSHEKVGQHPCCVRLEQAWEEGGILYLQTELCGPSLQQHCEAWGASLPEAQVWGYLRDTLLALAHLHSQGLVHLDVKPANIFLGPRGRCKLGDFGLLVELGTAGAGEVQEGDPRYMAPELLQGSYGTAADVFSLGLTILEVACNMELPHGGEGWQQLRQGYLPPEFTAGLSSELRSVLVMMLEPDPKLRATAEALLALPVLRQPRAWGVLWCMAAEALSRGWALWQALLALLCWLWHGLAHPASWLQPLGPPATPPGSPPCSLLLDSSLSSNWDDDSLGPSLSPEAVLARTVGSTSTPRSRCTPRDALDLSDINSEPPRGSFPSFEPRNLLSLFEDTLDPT
# test-name: Inhibition of human full length PKMYT1 expressed in HEK293 cells using EFS (247 to 259 residues) as substrate after 1 hr by fluorescence polarization immunoasay
Note that class boundaries on Ki are range A = under 0.01 µM, range B = from 0.01 µM up to 0.7 µM, range C = 0.7 µM and over

Please review the entries below; each comes with its answer.
[
  {
    "compound": "Cc1cc(O)cc(C)c1/C=C/c1cncc(C(N)=O)c1 [GW435821X]",
    "class": "range C"
  },
  {
    "compound": "NC(=O)c1cc(-c2ccncc2)cc(-c2ccccc2)c1N [GSK-625137A]",
    "class": "range C"
  },
  {
    "compound": "CCN(CC)CCOc1ccc(Nc2ncc3cc(-c4c(Cl)cccc4Cl)c(=O)n(C)c3n2)cc1 [PD-0166285]",
    "class": "range A"
  }
]

Please let me know in which category the item "Oc1cccc(Nc2ccnc3cc(-c4ccncc4)ccc23)c1" belongs.
range B

Please let me know in which category the item "Cc1cc(Nc2ncc3cc(-c4c(Cl)cccc4Cl)c(=O)n(C)c3n2)ccc1F" belongs.
range B

Please let me know in which category the item "CNC(=O)c1ccccc1Nc1nc(Nc2cccc(CS(C)(=O)=O)c2)ncc1C" belongs.
range B
